experiment: Selectivity ratio of IC50 for full length recombinant human HDAC3 to IC50 for full length recombinant human HDAC6
endpoint.label: Ratio IC50

INSERT INTO assay_data (smiles_text, result) VALUES
  ('CC(C)(C)c1ccc(S(=O)(=O)NCc2ccc(C(=O)NO)cc2)cc1', 7.09),
  ('CN(Cc1ccc(C(=O)NO)cc1)C(=O)c1c(F)c(F)c(F)c(F)c1F', 42.8),
  ('Cc1ccc(C(=O)Nc2ccc(C(=O)NO)cc2)cc1', 6.81),
  ('O=C(NO)c1ccc(NC(=O)c2ccc(N3CCOCC3)cc2)cc1', '> 9.53'),
  ('O=C(NO)c1ccc(NC(=O)c2ccc(C3CC3)cc2)cc1', 4.23),
  ('O=C(NO)c1ccc(NC(=O)c2ccc(F)cc2)cc1', 6.7),
  ('O=C(NO)c1ccc(NC(=O)c2ccc(C(F)(F)F)cc2)cc1', 9.73),
  ('O=C(NO)c1ccc(CN(C(=O)c2c(F)c(F)c(F)c(F)c2F)C2CC2)cc1', '> 52.8'),
  ('CC(C)(C)c1ccc(C(=O)Nc2ccc(C(=O)NO)cc2)cc1', 7.66),
  ('O=C(NO)c1ccc(NC(=O)c2c(F)c(F)c(F)c(F)c2F)cc1', 2.14),
  ('CC(C)(C)c1ccc(NC(=O)c2ccc(C(=O)NO)cc2)cc1', 1.05),
  ('O=C(/C=C/c1ccc(CN(C(=O)c2c(F)c(F)c(F)c(F)c2F)C2CC2)cc1)NO', 5.83),
  ('CC(C)N(Cc1ccc(C(=O)NO)cc1)C(=O)c1c(F)c(F)c(F)c(F)c1F', 62.6),
  ('CC(C)(C)c1ccc(S(=O)(=O)Nc2ccc(C(=O)NO)cc2)cc1', 1.12),
  ('O=C(NO)c1ccc(NC(=O)c2ccc(C3CCCCC3)cc2)cc1', 5.98),
  ('CC(C)(C)c1ccc(C(=O)N(Cc2ccc(C(=O)NO)cc2)C2CC2)cc1', 12.9),
  ('O=C(NO)c1ccc(CNC(=O)c2c(F)c(F)c(F)c(F)c2F)cc1', 36.3);
